Source: the supplement of paper PMC3545927

- tgt: furin, P09958
- Sequence (P09958 whole entry): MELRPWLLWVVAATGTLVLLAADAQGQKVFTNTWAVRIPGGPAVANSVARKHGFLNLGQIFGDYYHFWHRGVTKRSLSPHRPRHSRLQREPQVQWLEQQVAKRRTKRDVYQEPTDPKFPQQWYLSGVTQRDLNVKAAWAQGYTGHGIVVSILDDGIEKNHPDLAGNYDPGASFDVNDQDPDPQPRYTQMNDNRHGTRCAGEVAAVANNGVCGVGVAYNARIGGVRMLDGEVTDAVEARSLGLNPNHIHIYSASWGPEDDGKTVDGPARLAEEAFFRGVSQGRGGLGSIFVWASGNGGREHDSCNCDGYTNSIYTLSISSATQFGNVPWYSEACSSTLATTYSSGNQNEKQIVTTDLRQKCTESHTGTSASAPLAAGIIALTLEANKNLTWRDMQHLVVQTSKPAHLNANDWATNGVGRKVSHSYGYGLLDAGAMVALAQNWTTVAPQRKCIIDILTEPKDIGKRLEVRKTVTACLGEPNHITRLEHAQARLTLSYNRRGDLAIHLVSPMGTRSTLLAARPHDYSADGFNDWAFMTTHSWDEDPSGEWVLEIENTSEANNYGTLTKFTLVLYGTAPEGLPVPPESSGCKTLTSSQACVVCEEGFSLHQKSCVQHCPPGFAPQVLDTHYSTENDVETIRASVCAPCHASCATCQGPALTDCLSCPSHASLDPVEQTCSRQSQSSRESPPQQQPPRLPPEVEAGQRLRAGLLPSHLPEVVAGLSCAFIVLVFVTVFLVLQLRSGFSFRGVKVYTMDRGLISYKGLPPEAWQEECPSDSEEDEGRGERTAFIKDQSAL
- assay-procedure: furin cleavage Z-score vs untreated control; higher = more cleavage, active = 3.5 or more, inactive = 1 or less, 8 variable residues between constant flanks;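 also: purified furin at 1:10 enzyme:substrate in 50 mM HEPES pH 7.5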
- test-settings: 15 min
The list shows a part of the results. The true hit rate is not given.
result-type: furin cleavage Z-score

[
  {
    "chain-sequence": "CARVSKDVEDAGNASASA [FS-1803]",
    "result-type": "furin cleavage Z-score",
    "readout-value": "-0.204 (inactive)"
  },
  {
    "chain-sequence": "CARVCRDLMDAGNASASA [FS-1800]",
    "result-type": "furin cleavage Z-score",
    "readout-value": "7.74 (active)"
  },
  {
    "chain-sequence": "CARSLRDLMEAGNASASA [FS-2308]",
    "result-type": "furin cleavage Z-score",
    "readout-value": 1.52
  },
  {
    "chain-sequence": "CATTPCDGSWAGNASASA [HC72]",
    "result-type": "furin cleavage Z-score",
    "readout-value": 1.11
  },
  {
    "chain-sequence": "CAEVVTKTWVAGNASASA [HC151]",
    "result-type": "furin cleavage Z-score",
    "readout-value": "0.88 (inactive)"
  },
  {
    "chain-sequence": "CAVVCCSSSYAGNASASA [HC2057]",
    "result-type": "furin cleavage Z-score",
    "readout-value": "-0.457 (inactive)"
  },
  {
    "chain-sequence": "CADSVDAKPDAGNASASA [CS1]",
    "result-type": "furin cleavage Z-score",
    "readout-value": "-0.697 (inactive)"
  }
]
